# Relative variation of the maximum absorbance of the π→π* transitions values compiled below
assay explanation: Stability in organic medium (dimethyl sulfoxide) by UV-Vis spectroscopy
Assay type: physicochemical
conditions: time 2 h, band 289-300 nm (λmax in column head)
measurement kind: Relative variation of the maximum absorbance of the π→π* transitions (%)

[
  {
    "compound": "CC(=O)C1=C[CH]([Ru-]2([PH](c3ccccc3)(c3ccccc3)c3ccccc3)[n+]3ccccc3-c3cccc[n+]32)C=C1.O=S(=O)([O-])C(F)(F)F (centres unmarked)",
    "experimental value": "−0.9"
  },
  {
    "compound": "CCC(=O)C1=C[CH]([Ru-]2([PH](c3ccccc3)(c3ccccc3)c3ccccc3)[n+]3ccccc3-c3cccc[n+]32)C=C1.O=S(=O)([O-])C(F)(F)F (centres unmarked)",
    "experimental value": 0.0
  },
  {
    "compound": "O=C(Cc1ccccc1)C1=C[CH]([Ru-]2([PH](c3ccccc3)(c3ccccc3)c3ccccc3)[n+]3ccccc3-c3cccc[n+]32)C=C1.O=S(=O)([O-])C(F)(F)F (centres unmarked)",
    "experimental value": "−0.3"
  },
  {
    "compound": "COc1cc[n+]2c(c1)-c1cc(O)cc[n+]1[Ru-]2([CH]1C=CC=C1)[PH](c1ccccc1)(c1ccccc1)c1ccccc1.O=S(=O)([O-])C(F)(F)F (centres unmarked)",
    "experimental value": 1.5
  },
  {
    "compound": "NNC(=O)C1=C[CH]([Ru-]2([PH](c3ccccc3)(c3ccccc3)c3ccccc3)[n+]3ccccc3-c3cccc[n+]32)C=C1.O=S(=O)([O-])C(F)(F)F (centres unmarked)",
    "experimental value": 0.4
  }
]

* * *

Listed here: items and their measured Relative variation of the maximum absorbance of the charge transfer bands.
assay explanation: Stability in organic medium (dimethyl sulfoxide) by UV-Vis spectroscopy
Format: physicochemical
conditions: time 24 h, band 357-425 nm (λmax in column head)
Method: The stability of the complexes 4-11 in organic and aqueous media was evaluated over 24 h by UV-Vis spectroscopy at room temperature, in dark, on a Jasco V-660 spectrometer using quartz cuvettes (1 cm optical path length). […]
measurement kind: Relative variation of the maximum absorbance of the charge transfer bands (%)

[
  {
    "compound": "CC(=O)C1=C[CH]([Ru-]2([PH](c3ccccc3)(c3ccccc3)c3ccccc3)[n+]3ccccc3-c3cccc[n+]32)C=C1.O=S(=O)([O-])C(F)(F)F (centres unmarked)",
    "experimental value": 0.3
  },
  {
    "compound": "CCC(=O)C1=C[CH]([Ru-]2([PH](c3ccccc3)(c3ccccc3)c3ccccc3)[n+]3ccccc3-c3cccc[n+]32)C=C1.O=S(=O)([O-])C(F)(F)F (centres unmarked)",
    "experimental value": 0.2
  },
  {
    "compound": "CC(=O)C1=C[CH]([Ru-]2([PH](c3ccccc3)(c3ccccc3)c3ccccc3)[n+]3cccc4c5nccnc5c5ccc[n+]2c5c43)C=C1.O=S(=O)([O-])C(F)(F)F (centres unmarked)",
    "experimental value": "−0.3"
  },
  {
    "compound": "CCOC(=O)Oc1cc[n+]2c(c1)-c1cc(OC)cc[n+]1[Ru-]2([CH]1C=CC=C1)[PH](c1ccccc1)(c1ccccc1)c1ccccc1.O=S(=O)([O-])C(F)(F)F (centres unmarked)",
    "experimental value": 0.2
  },
  {
    "compound": "CC(=O)C1=C[CH]([Ru-]2([PH](c3ccccc3)(c3ccccc3)c3ccccc3)[n+]3cccc4ccc5ccc[n+]2c5c43)C=C1.O=S(=O)([O-])C(F)(F)F (centres unmarked)",
    "experimental value": 0.3
  }
]

Reference source: patent US20250195463A1
